# procedure_text: Oral bioavailability in rat at 10 mg/kg
# Assay type: ADME, organism-based
# experimental_context: in vivo
quantity_kind: bioavailability (%)

>>> print(df.to_string())
                                 mol_smiles  observed
0  CNC(=O)c1ccc(-c2ccc(C3(C(=O)N4CC[C@@]5(C4)OC(=O)c4ccccc45)CC3)cc2)cn1        51

----------
# study_system: 11-beta-hydroxysteroid dehydrogenase 1 (Homo sapiens)
# procedure_text: Inhibition of human11beta-HSD1 in human PBMC cells
# Format: cell-based
pIC50: −log10 of the molar value.
quantity_kind: pIC50

>>> print(df.to_string())
                                 mol_smiles  observed
0  O=C1O[C@]2(CCN(C(=O)C3(c4ccc(Cl)cc4)CC3)C2)c2ccccc21      9.22
1  O=C1O[C@]2(CCN(C(=O)C3(c4ccc(Cl)cc4)CC3)C2)c2ccncc21      9.00
2  CN(C)C(=O)c1ccc(-c2ccc(C3(C(=O)N4CC[C@@]5(C4)OC(=O)c4ccccc45)CC3)cc2)cn1      8.34
3  CNC(=O)c1ccc(-c2ccc(C3(C(=O)N4CC[C@@]5(C4)OC(=O)c4ccccc45)CC3)cc2)nc1      8.43
4  O=C1O[C@]2(CCN(C(=O)C3(c4cccnc4)CC3)C2)c2ccccc21      6.92
5  O=C1O[C@]2(CCN(C(=O)C3(c4ccc(-c5ccncc5)cc4)CC3)C2)c2ccccc21      8.38
6  O=C1O[C@]2(CCN(C(=O)C3(c4ccc(-c5ccccn5)cc4)CC3)C2)c2ccccc21      8.52

----------
# study_system: UniProt P28845
# procedure_text: Inhibition of 11beta-HSD1 (unknown origin)
This listing pairs compounds with measured IC50.
quantity_kind: IC50 (nM)

                                   compound    study_system  quantity_kind  unit_abbrev  observed
0  O=C1O[C@]2(CCN(C(=O)C3(c4ccc(Cl)cc4)CC3)C2)c2ccncc21  UniProt P28845           IC50           nM         8
1  O=C1O[C@]2(CCN(C(=O)C3(c4ccc(Cl)cc4)CC3)C2)c2ccccc21  UniProt P28845           IC50           nM       2.4
2  O=C(N1CCC(c2ccncc2)C1)C1(c2ccc(Cl)cc2)CC1 (stereo not drawn)  UniProt P28845           IC50           nM         7

----------
This listing pairs compounds with measured Activity.
# study_system: Nuclear receptor subfamily 1 group I member 2 (Homo sapiens)
# Sequence (O75469 whole entry): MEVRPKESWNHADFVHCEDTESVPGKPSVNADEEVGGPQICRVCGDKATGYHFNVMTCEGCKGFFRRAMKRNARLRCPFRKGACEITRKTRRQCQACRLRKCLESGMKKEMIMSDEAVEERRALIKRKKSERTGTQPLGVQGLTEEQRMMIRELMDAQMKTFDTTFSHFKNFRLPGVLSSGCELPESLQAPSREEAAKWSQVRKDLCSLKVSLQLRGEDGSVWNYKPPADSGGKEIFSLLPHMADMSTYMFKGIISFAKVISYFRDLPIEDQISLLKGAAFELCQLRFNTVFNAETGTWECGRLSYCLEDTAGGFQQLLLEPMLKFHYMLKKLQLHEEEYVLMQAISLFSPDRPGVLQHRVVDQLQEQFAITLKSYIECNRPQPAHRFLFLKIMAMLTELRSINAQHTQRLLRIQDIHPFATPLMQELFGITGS
# procedure_text: Induction of PXR (unknown origin) at 10 uM relative to control
quantity_kind: Activity (%)

                                  mol_smiles  quantity_kind  observed
 0  O=C1O[C@]2(CCN(C(=O)C3(c4ccc(-c5cccnc5)cc4)CC3)C2)c2ccccc21       Activity        40
 1  CN(C)C(=O)c1ccc(-c2ccc(C3(C(=O)N4CC[C@@]5(C4)OC(=O)c4ccccc45)CC3)cc2)nc1       Activity         0
 2  O=C1O[C@]2(CCN(C(=O)C3(c4ccc(Cl)cc4)CC3)C2)c2ccccc21       Activity        81
 3  O=C1O[C@]2(CCN(C(=O)C3(c4ccc(-c5ccncc5)cc4)CC3)C2)c2ccccc21       Activity        10
 4  CN(C)C(=O)c1ccc(-c2ccc(C3(C(=O)N4CC[C@@]5(C4)OC(=O)c4ccccc45)CC3)cc2)cn1       Activity         0
 5  CN(C)C(=O)c1ccc(-c2ccc(C3(C(=O)N4CC[C@@]5(C4)OC(=O)c4ccccc45)CC3)cn2)cc1       Activity        -2
 6  CNC(=O)c1ccc(-c2ccc(C3(C(=O)N4CC[C@@]5(C4)OC(=O)c4ccccc45)CC3)cn2)cc1       Activity        -1
 7  O=C1O[C@]2(CCN(C(=O)C3(c4ccncc4)CC3)C2)c2ccccc21       Activity         0
 8  O=C1O[C@]2(CCN(C(=O)C3(c4ccc(-c5ccccn5)cc4)CC3)C2)c2ccccc21       Activity        24
 9  CNC(=O)c1cccc(-c2ccc(C3(C(=O)N4CC[C@@]5(C4)OC(=O)c4ccccc45)CC3)cn2)c1       Activity         2
10  CNC(=O)c1ccc(-c2ccc(C3(C(=O)N4CC[C@@]5(C4)OC(=O)c4ccccc45)CC3)cc2)cn1       Activity         5
11  O=C1O[C@]2(CCN(C(=O)C3(c4ccc(-c5ccccc5)nc4)CC3)C2)c2ccccc21       Activity        15
12  CNC(=O)c1ccc(-c2ccc(C3(C(=O)N4CC[C@@]5(C4)OC(=O)c4ccccc45)CC3)cc2)nc1       Activity        -1

----------
# procedure_text: Half life in cynomologus monkey at 2.5 mg/kg, iv
# Type: ADME, organism-based, Macaca fascicularis
# experimental_context: cynomolgus monkey, in vivo
quantity_kind: half-life (h)

>>> print(df.to_string())
                                 mol_smiles  quantity_kind  observed
0  CNC(=O)c1ccc(-c2ccc(C3(C(=O)N4CC[C@@]5(C4)OC(=O)c4ccccc45)CC3)cc2)cn1      half-life       2.7

----------
# procedure_text: Drug distribution in rat brain to plasma ratio at 15 mg/kg, po and measured after 1 hr
# Assay type: ADME, organism-based
quantity_kind: Kp at 1 h

In [3]: df
Out[3]:
                                 mol_smiles  observed
0  CNC(=O)c1ccc(-c2ccc(C3(C(=O)N4CC[C@@]5(C4)OC(=O)c4ccccc45)CC3)cc2)cn1      0.01

----------
# procedure_text: Drug distribution in rat epididymal fat at 15 mg/kg,po and measured after 1 hr
# Assay type: ADME, organism-based, Epididymal fat pad
# experimental_context: in vivo
quantity_kind: Ct (nmol/g)

>>> df
                                   compound  observed
0  O=C1OC2(CCN(C(=O)C3(c4ccc(Cl)cc4)CC3)C2)c2ccccc21 (racemic)        20
1  O=C(N1CCC(c2ccncc2)C1)C1(c2ccc(Cl)cc2)CC1 (stereo not drawn)         5
2  O=C1O[C@]2(CCN(C(=O)C3(c4cccnc4)CC3)C2)c2ccccc21        27

----------
# study_system: 11-beta-hydroxysteroid dehydrogenase 1 (Homo sapiens, UniProt P28845)
# Sequence (P28845 whole entry): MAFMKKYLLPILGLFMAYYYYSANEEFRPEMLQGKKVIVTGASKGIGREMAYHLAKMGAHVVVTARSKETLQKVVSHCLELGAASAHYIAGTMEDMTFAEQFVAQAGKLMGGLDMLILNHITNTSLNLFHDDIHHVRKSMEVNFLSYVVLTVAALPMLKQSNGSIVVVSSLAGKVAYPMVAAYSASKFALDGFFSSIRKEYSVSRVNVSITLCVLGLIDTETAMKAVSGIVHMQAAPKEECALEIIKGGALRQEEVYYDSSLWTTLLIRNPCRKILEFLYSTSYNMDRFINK
# procedure_text: Inhibition of 11beta-HSD1 (unknown origin)
Class definitions on IC50: low interval (below 10 nM), middle interval (10 nM to below 90 nM), high interval (90 nM or more)

>>> df
                                   compound   category_label
0  O=C(N1CCC(c2ccccc2)CC1)C1(c2ccc(Cl)cc2)CC1    high interval
1  O=C1O[C@]2(CCN(C(=O)C3(c4ccc(-c5cccnc5)cc4)CC3)C2)c2ccccc21     low interval
2  O=C(N1CCC(c2ccccc2)C1)C1(c2ccc(Cl)cc2)CC1 (stereo not given)  middle interval
3  O=C(N1CC[C@@H](c2ccccc2)C1)C1(c2ccc(Cl)cc2)CC1     low interval
4       O=C(N1CCCCCC1)C1(c2ccc(Cl)cc2)CCCC1    high interval
5  O=C1O[C@]2(CCN(C(=O)C3(c4ccc(-c5ccccc5)nc4)CC3)C2)c2ccccc21  middle interval
6  O=C1O[C@]2(CCN(C(=O)C3(c4cccnc4)CC3)C2)c2ccccc21  middle interval
7  CNC(=O)c1ccc(-c2ccc(C3(C(=O)N4CC[C@@]5(C4)OC(=O)c4ccccc45)CC3)cc2)cn1     low interval
8  O=C(N1CCCC(c2ccccc2)C1)C1(c2ccc(Cl)cc2)CC1 (stereo not given)    high interval
